# assay.method.text: Oral absorption in pigs, plasma concentration by microbiological analysis
# Type: in vivo
# details: pig, 25 mg/kg body weight, pure compound in drinking water, read-out: AUC (area under curve)

>  <input.smiles>
C=C[C@]1(C)C[C@@H](OC(=O)CSC(C)(C)CNC(=O)[C@H](N)C(C)C)[C@]2(C)[C@H](C)CC[C@]3(CCC(=O)[C@H]32)[C@@H](C)[C@@H]1O

>  <AUC, ng·h/mL>
21400

$$$$

----------
# assay.method.text: Oral absorption in rats, plasma concentration by microbiological analysis
# Assay type: in vivo
# details: rat, 25 mg/kg body weight, pure compound in drinking water, read-out: AUC (area under curve)
# Experimental: Absorption following administration to rats and pigs of 25 mg/kg body weight of a preparation according to Example 3 is tested and compared with pure compound of formula I (hydrochloride) in the drinking water. Blood samples are taken after a period of 24 hours and the concentration of active substance in plasma determined by microbiological analysis. The results in Table 3 show the absorption of the compound of formula I when administered in the form of a complex of the invention: […]

>  <input.smiles>
C=C[C@]1(C)C[C@@H](OC(=O)CSC(C)(C)CNC(=O)[C@H](N)C(C)C)[C@]2(C)[C@H](C)CC[C@]3(CCC(=O)[C@H]32)[C@@H](C)[C@@H]1O

>  <units.label>
µg·h/mL

>  <AUC>
139

$$$$

----------
# assay.method.text: Oral absorption in pigs, plasma concentration by microbiological analysis
# Format: in vivo
# details: pig, 25 mg/kg body weight, pure compound in drinking water, read-out: Cmax (maximum plasma concentration)

>  <input.smiles>
C=C[C@]1(C)C[C@@H](OC(=O)CSC(C)(C)CNC(=O)[C@H](N)C(C)C)[C@]2(C)[C@H](C)CC[C@]3(CCC(=O)[C@H]32)[C@@H](C)[C@@H]1O

>  <units.label>
ng/mL

>  <Cmax>
1200

$$$$
